Tested system: HLA B*4402 (Homo sapiens, UniProt P01889, A223V/A65T/A93T/A95T/D201E/D98Y/E176V/E187L/E204Q/E69K/G107R/H137Y/K202T/L105A/L119I/N104T/N87E/Q56L/Q94N/R106L/R155S/R180D/S101N/S121R/S35A/S48T/T118I/V36M/W191S/Y140D/Y91S)
Protocol: HLA class I binding assay (cell-free competition, fluorescence polarization)
Where a SMILES comes first, the peptide text is derived from it.
Endpoint: IC50 (µM)
Give bare numbers, in µM.

compound="C[C@@H](O)[C@H](NC(=O)[C@H](CC(N)=O)NC(=O)[C@H](CC(N)=O)NC(=O)[C@H](CCC(=O)O)NC(=O)[C@@H](N)CC(N)=O)C(=O)N[C@H](C(=O)N[C@@H](Cc1ccc(O)cc1)C(=O)N[C@@H](CCC(N)=O)C(=O)N[C@@H](Cc1ccc(O)cc1)C(=O)O)[C@@H](C)O (H-NENNTTYQY-OH)" endpoint=IC50 unit_name=µM assay_value=18.4

# ---- query compound ----
(Q) Need IC50, item CC[C@H](C)[C@H](NC(=O)[C@@H](NC(=O)[C@@H](NC(=O)[C@H](Cc1c[nH]cn1)NC(=O)[C@H](CC(=O)O)NC(=O)[C@H](CCCCN)NC(=O)[C@H](CCCCN)NC(=O)[C@H](CCC(=O)O)NC(=O)[C@@H](N)CCCCN)[C@@H](C)CC)C(C)C)C(=O)O (H-KEKKDHIVI-OH)
(A) 64.6

###

Exercise: state measured IC50 for each of the molecules provided.
Tested system: HLA A*0201 (Homo sapiens, UniProt P04439, D140Y/D185E/D98H/E176V/E277Q/G131W/G231S/I119V/I121R/I166T/I218V/L300P/L318F/N151K/N90K/P208A/P217A/Q86G/Q94H/R138H/R169H/T345S)
Protocol: HLA class I binding assay (cell-free competition, fluorescence polarization)
Where a SMILES comes first, the peptide text is derived from it.
Numbers only, in nM.

Examples with their reported IC50 follow.
molecule="CC[C@H](C)[C@H](NC(=O)[C@H](CC(N)=O)NC(=O)[C@H](CCCCN)NC(=O)[C@H](CCCCN)NC(=O)[C@H](CCCCN)NC(=O)[C@H](CC(C)C)NC(=O)[C@@H](N)Cc1ccccc1)C(=O)N[C@H](C(=O)N[C@@H](CC(C)C)C(=O)O)[C@@H](C)O (H-FLKKKNITL-OH)" assay_value=5340
molecule="CC[C@H](C)[C@H](NC(=O)[C@H](CC(=O)O)NC(=O)[C@@H](NC(=O)[C@H](CO)NC(=O)[C@@H](NC(=O)[C@@H](N)CC(C)C)[C@@H](C)CC)[C@@H](C)O)C(=O)N[C@H](C(=O)N[C@@H](Cc1ccccc1)C(=O)N[C@@H](CC(C)C)C(=O)O)[C@@H](C)CC (H-LISTDIIFL-OH)" assay_value=614
molecule="CC[C@H](C)[C@H](NC(=O)CN)C(=O)N[C@@H](C)C(=O)N[C@@H](CC(N)=O)C(=O)N[C@@H](CC(=O)O)C(=O)N[C@@H](CC(C)C)C(=O)N[C@@H](CO)C(=O)N[C@H](C(=O)N[C@@H](CC(C)C)C(=O)O)[C@@H](C)O (H-GIANDLSTL-OH)" assay_value=5730
molecule="CC[C@H](C)[C@H](N)C(=O)N[C@@H](CC(C)C)C(=O)N[C@@H](Cc1ccc(O)cc1)C(=O)N[C@@H](CCCCN)C(=O)N[C@@H](CC(N)=O)C(=O)N[C@H](C(=O)N[C@@H](CC(=O)O)C(=O)N[C@@H](CS)C(=O)N[C@H](C(=O)O)C(C)C)[C@@H](C)CC (H-ILYKNIDCV-OH)" assay_value=1400
molecule="CC[C@H](C)[C@H](NC(=O)[C@@H](N)CO)C(=O)N[C@@H](CO)C(=O)N[C@@H](CC(=O)O)C(=O)N[C@@H](Cc1ccc(O)cc1)C(=O)N[C@H](C(=O)N[C@@H](CCCCN)C(=O)N[C@@H](CO)C(=O)N[C@@H](CC(C)C)C(=O)O)[C@@H](C)O (H-SISDYTKSL-OH)" assay_value=352000
molecule="CC[C@H](C)[C@H](NC(=O)CNC(=O)[C@H](Cc1ccc(O)cc1)NC(=O)[C@H](Cc1c[nH]cn1)NC(=O)[C@@H](NC(=O)[C@@H](N)C(C)C)[C@@H](C)CC)C(=O)N[C@@H](CC(N)=O)C(=O)N1CCC[C@H]1C(=O)N[C@H](C(=O)O)C(C)C (H-VIHYGINPV-OH)" assay_value=1700

(Q) Need IC50, item CC[C@H](C)[C@H](NC(=O)[C@H](Cc1ccc(O)cc1)NC(=O)[C@@H]1CCCN1C(=O)[C@@H]1CCCN1C(=O)[C@H](CC(C)C)NC(=O)CNC(=O)[C@@H](NC(=O)[C@@H](NC(=O)[C@@H](N)Cc1ccc(O)cc1)[C@@H](C)O)[C@@H](C)CC)C(=O)O (H-YTIGLPPYI-OH)
(A) 2460

###

Tested system: HLA B*4402 (Homo sapiens, UniProt P01889, A223V/A65T/A93T/A95T/D201E/D98Y/E176V/E187L/E204Q/E69K/G107R/H137Y/K202T/L105A/L119I/N104T/N87E/Q56L/Q94N/R106L/R155S/R180D/S101N/S121R/S35A/S48T/T118I/V36M/W191S/Y140D/Y91S)
Protocol: HLA class I binding assay (cell-free competition, fluorescence polarization)
Where a SMILES comes first, the peptide text is derived from it.
Exercise: state measured pIC50 for each of the compounds provided.
Give bare numbers, as −log10 of the molar value.

compound="C[C@H](N)C(=O)N[C@@H](CO)C(=O)N[C@@H](Cc1ccccc1)C(=O)N[C@@H](CO)C(=O)N[C@@H](C)C(=O)N[C@@H](CO)C(=O)N[C@H](C(=O)NCC(=O)N[C@@H](Cc1ccc(O)cc1)C(=O)O)[C@@H](C)O (H-ASFSASTGY-OH)" assay_value=4.50

# ---- query compound ----
(Q) Need pIC50, item CSCC[C@H](NC(=O)[C@H](CC(N)=O)NC(=O)[C@H](CCCCN)NC(=O)[C@H](CC(N)=O)NC(=O)[C@H](CCCCN)NC(=O)[C@H](Cc1ccccc1)NC(=O)[C@H](Cc1ccc(O)cc1)NC(=O)[C@H](CCC(=O)O)NC(=O)[C@@H](N)[C@@H](C)O)C(=O)O (H-TEYFKNKNM-OH)
(A) 4.50

###

Tested system: HLA A*0101 (Homo sapiens, UniProt P04439, A114D/A174V/A182V/D101N/D185E/E176A/E190D/L180R/Q94H/R68K/S129P/T187R/V100A/V91M/W191G)
Protocol: HLA class I binding assay (cell-free competition, fluorescence polarization)
Where a SMILES comes first, the peptide text is derived from it.
Exercise: state measured IC50 for each of the compounds provided.
Numbers only, in µM.

compound="CC(C)C[C@H](N)C(=O)N[C@H](C(=O)N[C@@H](Cc1c[nH]cn1)C(=O)N[C@@H](CCCCN)C(=O)N[C@@H](Cc1ccc(O)cc1)C(=O)N[C@@H](CC(N)=O)C(=O)N[C@@H](CCC(=O)O)C(=O)N[C@@H](Cc1ccccc1)C(=O)N[C@H](C(=O)O)C(C)C)[C@@H](C)O (H-LTHKYNEFV-OH)" assay_value=174

# ---- query compound ----
(Q) Need IC50, item CC(C)[C@H](NC(=O)[C@@H](NC(=O)[C@@H](N)CC(N)=O)[C@@H](C)O)C(=O)N[C@@H](CCCCN)C(=O)N[C@@H](CS)C(=O)N1CCC[C@H]1C(=O)N[C@@H](CC(N)=O)C(=O)N[C@@H](CC(=O)O)C(=O)N[C@@H](Cc1ccc(O)cc1)C(=O)O (H-NTVKCPNDY-OH)
(A) 282

###

Exercise: state measured IC50 for each of the compounds provided.
Tested system: HLA B*0702 (Homo sapiens, UniProt P01889)
Protocol: HLA class I binding assay (cell-free competition, fluorescence polarization)
Where a SMILES comes first, the peptide text is derived from it.

Examples with their reported IC50 follow.
compound="CSCC[C@H](NC(=O)[C@@H](NC(=O)[C@H](CC(=O)O)NC(=O)[C@H](Cc1c[nH]cn1)NC(=O)[C@@H]1CCCN1C(=O)[C@@H](N)CO)[C@@H](C)O)C(=O)N[C@@H](CCC(N)=O)C(=O)N[C@@H](CCCCN)C(=O)N[C@@H](CC(=O)O)C(=O)N[C@@H](CC(=O)O)C(=O)O (H-SPHDTMQKDD-OH; N-terminus assumed)" assay_value="> 1000 µM"
compound="CC(C)C[C@H](NC(=O)[C@H](CC(=O)O)NC(=O)[C@H](CCCNC(=N)N)NC(=O)[C@H](CCCNC(=N)N)NC(=O)[C@H](CC(=O)O)NC(=O)[C@H](CO)NC(=O)[C@H](CC(N)=O)NC(=O)[C@H](CC(C)C)NC(=O)[C@@H](N)CC(C)C)C(=O)O (H-LLNSDRRDL-OH)" assay_value="0.2 µM"

# ---- query compound ----
(Q) Need IC50, item CC[C@H](C)[C@H](NC(=O)[C@@H](N)CO)C(=O)N[C@@H](C)C(=O)N[C@@H](CO)C(=O)N[C@@H](CCCCN)C(=O)N[C@@H](CC(N)=O)C(=O)N[C@@H](CC(C)C)C(=O)N[C@@H](CCSC)C(=O)N[C@@H](Cc1c[nH]c2ccccc12)C(=O)N[C@H](C(=O)O)C(C)C (H-SIASKNLMWV-OH)
(A) > 1000 µM
